- Test system: PBMC
- Assay Summary: 193 ssRNA 4mer-motif library screen: IL-12 (IL-12p40) production in PBMC of six donors, poly-L-Arg complexation, ELISA at 44 hours, IL-12 index and adjusted IL-12 index
- Assay type: cell-based, human
- Parameters: key: IL-12 index (ratio to 9.2sense) minus donor mean, averaged over 6 donors
- Stated Conditions: 193 ssRNA oligonucleotide library; data from six individual donors summarized; ascending order
What Adjusted IL-12 index Mean was measured for each of the following?
One number for each entry.

Input Sequence	Adjusted IL-12 index Mean
AAAAAAACGUGAAAAAAAA (RNA, backbone not given here) [ANP-Oligo 084]	−0.2
AAAAAAACGACAAAAAAAA (RNA, backbone not given here) [ANP-Oligo 074]	−0.6
AAAAAAACGCCAAAAAAAA (RNA, backbone not given here) [ANP-Oligo 077]	−0.62

Could you now look at the following sequence, please?
Problem: Please tell me the measured Adjusted IL-12 index Mean for AAAAAAAUGUUAAAAAAAA (RNA, backbone not given here) [ANP-Oligo 181] ; system: PBMC.
Solution: 0.79

###

- System: PBMC
- Assay Summary: 193 ssRNA 4mer-motif library screen: IL-12 (IL-12p40) production in PBMC of six donors, poly-L-Arg complexation, ELISA at 44 hours, IL-12 index and adjusted IL-12 index
- Assay type: cell-based, human
- Parameters: key: IL-12 index (ratio to 9.2sense) minus donor mean, averaged over 6 donors
- Stated Conditions: 193 ssRNA oligonucleotide library; data from six individual donors summarized; ascending order
- Protocol: FIG. 9: PBMC of six different healthy donors were isolated and stimulated with poly-L-arginine complexed ssRNA oligonucleotides in duplicates. 44 hours after stimulation IL-12p40 production was assessed in supernatant via ELISA. […] All 193 ssRNA oligonucleotides were tested on PBMC of six individual healthy donors using poly-L-Arg for complexation. At 44 hours after stimulation with RNA oligonucleotides, supernatants were collected and IL-12 production was measured by ELISA. […]
Measurement Label: Adjusted IL-12 index Mean
Give bare numbers.

These solved cases illustrate the format of a correct answer.
Input Sequence	Adjusted IL-12 index Mean
AAAAAAAAUAAAAAAAAAA (RNA, backbone not given here) [ANP-Oligo 004]	−0.4
AAAAAAAAGACAAAAAAAA (RNA, backbone not given here) [ANP-Oligo 026]	−0.6
AAAAAAAGGAGAAAAAAAA (RNA, backbone not given here) [ANP-Oligo 123]	−0.51
AAAAAAAGGUCAAAAAAAA (RNA, backbone not given here) [ANP-Oligo 131]	0.12
AAAAAAAUUAGAAAAAAAA (RNA, backbone not given here) [ANP-Oligo 183]	0.27
AAAAAAAUCGCAAAAAAAA (RNA, backbone not given here) [ANP-Oligo 164]	−0.1
AAAAAAAAGGGAAAAAAAA (RNA, backbone not given here) [ANP-Oligo 033]	−0.59
AAAAAAAAUCUAAAAAAAA (RNA, backbone not given here) [ANP-Oligo 043]	−0.22
AAAAAAAUGGUAAAAAAAA (RNA, backbone not given here) [ANP-Oligo 178]	3.26
AAAAAAAUGGGAAAAAAAA (RNA, backbone not given here) [ANP-Oligo 177]	−0.35

Field: Adjusted IL-12 index Mean. Fill in for each record below.
1. AAAAAAACGAUAAAAAAAA (RNA, backbone not given here) [ANP-Oligo 076]
2. AAAAAAAGCUUAAAAAAAA (RNA, backbone not given here) [ANP-Oligo 121]

Solution:
1: 0.02; 2: 0.24

Field: Adjusted IL-12 index Mean. Fill in for each record below.
1. AAAAAAAGUAGAAAAAAAA (RNA, backbone not given here) [ANP-Oligo 135]
2. AAAAAAACUGUAAAAAAAA (RNA, backbone not given here) [ANP-Oligo 094]
3. AAAAAAAUUUCAAAAAAAA (RNA, backbone not given here) [ANP-Oligo 191]
4. AAAAAAAUUUGAAAAAAAA (RNA, backbone not given here) [ANP-Oligo 192]

Solution:
1. 0.67
2. 0.9
3. 0.27
4. 0.65

Problem: Entry AAAAAAAAUAGAAAAAAAA (RNA, backbone not given here) [ANP-Oligo 039] needs its Adjusted IL-12 index Mean filled in; supply it.
Solution: −0.05

###

- System: PBMC
- Assay Summary: 193 ssRNA 4mer-motif library screen: IL-12 (IL-12p40) production in PBMC of six donors, poly-L-Arg complexation, ELISA at 44 hours, IL-12 index and adjusted IL-12 index
- Assay type: cell-based, human
- Stated Conditions: summarized from all six donors
Measurement Label: adjusted IL-12 index
One number for each entry.

Input Sequence	Test System	adjusted IL-12 index
AAAAAAAUGGUAAAAAAAA (RNA, backbone not given here) [ANP-Oligo 178]	PBMC	3.26
AAAAAAAUUGUAAAAAAAA (RNA, backbone not given here) [ANP-Oligo 190]	PBMC	1.6
AAAAAAAUAGUAAAAAAAA (RNA, backbone not given here) [ANP-Oligo 154]	PBMC	1.57

Could you now look at the following sequence, please?
Problem: Entry AAAAAAAUCGUAAAAAAAA (RNA, backbone not given here) [ANP-Oligo 166] needs its adjusted IL-12 index filled in; supply it.
Solution: 4.42

###

What Adjusted IL-12 index Mean was measured for each of the following?
- Test system: PBMC
- Assay Summary: 193 ssRNA 4mer-motif library screen: IL-12 (IL-12p40) production in PBMC of six donors, poly-L-Arg complexation, ELISA at 44 hours, IL-12 index and adjusted IL-12 index
- Type: cell-based, human
- Set-up: key: IL-12 index (ratio to 9.2sense) minus donor mean, averaged over 6 donors
- Stated Conditions: 193 ssRNA oligonucleotide library; data from six individual donors summarized; ascending order
- Protocol: FIG. 9: PBMC of six different healthy donors were isolated and stimulated with poly-L-arginine complexed ssRNA oligonucleotides in duplicates. 44 hours after stimulation IL-12p40 production was assessed in supernatant via ELISA. […] All 193 ssRNA oligonucleotides were tested on PBMC of six individual healthy donors using poly-L-Arg for complexation. At 44 hours after stimulation with RNA oligonucleotides, supernatants were collected and IL-12 production was measured by ELISA. […]
Answers are plain numbers.

Substance	Adjusted IL-12 index Mean
AAAAAAAAGAGAAAAAAAA (RNA, backbone not given here) [ANP-Oligo 027]	−0.62
AAAAAAAACUCAAAAAAAA (RNA, backbone not given here) [ANP-Oligo 023]	−0.41
AAAAAAAUUCUAAAAAAAA (RNA, backbone not given here) [ANP-Oligo 187]	0.18
AAAAAAACUCGAAAAAAAA (RNA, backbone not given here) [ANP-Oligo 090]	−0.54
AAAAAAAAGGUAAAAAAAA (RNA, backbone not given here) [ANP-Oligo 034]	2.21

Field: Adjusted IL-12 index Mean. Fill in for each record below.
1. AAAAAAAUGUGAAAAAAAA (RNA, backbone not given here) [ANP-Oligo 180]
2. AAAAAAACCUGAAAAAAAA (RNA, backbone not given here) [ANP-Oligo 072]

Solution:
1. 1.31
2. −0.51

###

- Test system: PBMC
- Assay Summary: 193 ssRNA 4mer-motif library screen: IL-12 (IL-12p40) production in PBMC of six donors, poly-L-Arg complexation, ELISA at 44 hours, IL-12 index and adjusted IL-12 index
- Assay type: cell-based, human
- Set-up: key: IL-12 index (ratio to 9.2sense) minus donor mean, averaged over 6 donors
- Stated Conditions: 193 ssRNA oligonucleotide library; data from six individual donors summarized; ascending order
The label depends only on Adjusted IL-12 index Mean: condition met if it is at least 0.2, condition not met if it is smaller.

Observe how each entry below is paired with its result.
Input Sequence	Category
AAAAAAACCGUAAAAAAAA (RNA, backbone not given here) [ANP-Oligo 070]	condition not met
AAAAAAAACAAAAAAAAAA (RNA, backbone not given here) [ANP-Oligo 002]	condition not met

Problem: Evaluate AAAAAAACCUCAAAAAAAA (RNA, backbone not given here) [ANP-Oligo 071] : Adjusted IL-12 index Mean at minimum 0.2?
Solution: condition not met

Problem: Evaluate AAAAAAAGCGUAAAAAAAA (RNA, backbone not given here) [ANP-Oligo 118] : Adjusted IL-12 index Mean at minimum 0.2?
Solution: condition not met

Problem: Evaluate AAAAAAAGCUCAAAAAAAA (RNA, backbone not given here) [ANP-Oligo 119] : Adjusted IL-12 index Mean at minimum 0.2?
Solution: condition not met

Problem: Evaluate AAAAAAACAGUAAAAAAAA (RNA, backbone not given here) [ANP-Oligo 058] : Adjusted IL-12 index Mean at minimum 0.2?
Solution: condition met

Problem: Evaluate AAAAAAACGGUAAAAAAAA (RNA, backbone not given here) [ANP-Oligo 082] : Adjusted IL-12 index Mean at minimum 0.2?
Solution: condition met

Problem: Evaluate AAAAAAAUAGCAAAAAAAA (RNA, backbone not given here) [ANP-Oligo 152] : Adjusted IL-12 index Mean at minimum 0.2?
Solution: condition met

Value source: patent US8815503B2
